# ASSAY TARGET: memapsin 2 (Homo sapiens, UniProt P56817)
# Sequence (P56817 46-501): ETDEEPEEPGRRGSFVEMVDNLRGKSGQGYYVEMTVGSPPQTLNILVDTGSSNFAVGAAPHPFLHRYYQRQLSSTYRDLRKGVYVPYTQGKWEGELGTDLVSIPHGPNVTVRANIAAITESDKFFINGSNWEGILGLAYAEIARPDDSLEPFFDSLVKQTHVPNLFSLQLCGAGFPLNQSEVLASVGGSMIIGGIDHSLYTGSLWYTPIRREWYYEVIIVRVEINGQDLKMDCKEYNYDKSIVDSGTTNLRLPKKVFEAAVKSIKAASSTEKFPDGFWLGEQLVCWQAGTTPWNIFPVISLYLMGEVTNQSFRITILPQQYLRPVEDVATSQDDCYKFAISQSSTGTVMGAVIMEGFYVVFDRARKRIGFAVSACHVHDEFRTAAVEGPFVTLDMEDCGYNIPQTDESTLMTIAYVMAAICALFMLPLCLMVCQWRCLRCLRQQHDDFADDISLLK
# PROTOCOL SUMMARY: Inhibition of memapsin 2 beta-secretase activity toward fluorogenic substrate FS-2
# Assay type: biochemical
# ASSAY CONTEXT: memapsin 2, pH 4, 37° C., 20 minutes pre-incubation, substrate FS-2; read-out: M2Ki
MEASURED PARAMETER: Ki

Worked cases, Ki given:
Cc1cc(C(=O)N[C@@H](Cc2ccccc2)[C@H](O)CNCc2cc3ccccc3o2)cc(C(=O)N2CCC[C@@H]2c2nc(C)cs2)c1 = > 201 nM
COc1cccc(CNC[C@@H](O)[C@H](Cc2ccccc2)NC(=O)c2cccc(C(=O)N3CCCC[C@@H]3c3nc(C)cs3)c2)c1 = < 100 nM
Cc1csc([C@H]2CCCN2C(=O)c2cc(C(=O)N[C@@H](Cc3ccccc3)[C@H](O)CNCc3cccc(Cl)c3)cc(N(C)C)c2)n1 = < 100 nM
Cc1coc([C@H]2CCCN2C(=O)c2cc(CF)cc(C(=O)N[C@@H](Cc3ccccc3)[C@H](O)CNCc3cccc(C(F)(F)F)c3)c2)n1 = < 100 nM
Cc1coc([C@H]2CCCN2C(=O)c2cccc(C(=O)N[C@@H](Cc3ccccc3)[C@H](O)CNCc3cncc(C(C)(F)F)c3)c2)n1 = < 100 nM

Now let's try a different one.
Query: So what Ki did C=C(C)c1cccc(CNC[C@@H](O)[C@H](Cc2ccccc2)NC(=O)c2cc(C)cc(C(=O)N3CCC[C@@H]3c3nc(C)co3)c2)c1 get with memapsin 2 (Homo sapiens, UniProt P56817)?
Response: < 100 nM

###

Listed compounds paired with reported pKi
# ASSAY TARGET: memapsin 2 (Homo sapiens)
# PROTOCOL SUMMARY: Inhibition of memapsin 2 beta-secretase activity toward fluorogenic substrate FS-2
# Format: biochemical
# ASSAY CONTEXT: memapsin 2, pH 4, 37° C., 20 minutes pre-incubation, substrate FS-2; read-out: M2Ki
pKi: −log10 of the molar value.

Cc1csc([C@H]2CCCN2C(=O)c2cc(C(=O)N[C@@H](Cc3ccccc3)[C@H](O)CNCc3cccc(C(F)(F)F)c3)cc(-c3ncco3)c2)n1 = > 7.00
Cc1csc([C@H]2CCCN2C(=O)c2cc(C(=O)N[C@@H](Cc3ccccc3)[C@H](O)CNCc3cccc(C(F)(F)F)c3)cc(-c3ccc(F)nc3)n2)n1 = 6.70 to 7.00
Cc1csc([C@H]2CCCN2C(=O)c2cccc(C(=O)N[C@@H](Cc3ccccc3)[C@H](O)CNCc3cccc(C(F)(F)F)c3)c2)n1 = > 7.00
Cc1csc([C@H]2COCN2C(=O)c2cccc(C(=O)N[C@@H](Cc3ccccc3)[C@H](O)CNCc3cccc(C(F)(F)F)c3)c2)n1 = > 7.00

Query: State the recorded pKi for this entry: Cc1csc([C@H]2CCCN2C(=O)c2cccc(C(=O)N[C@@H](Cc3ccccc3)[C@H](O)CNCc3cc(C(C)C)no3)c2)n1
Response: > 7.00

Query: Field entry: Cc1cc(C(=O)N[C@@H](Cc2ccccc2)[C@H](O)CNCc2cccc(C(C)(C)C)c2)cc(C(=O)N2CCC[C@@H]2c2nc(C)cs2)c1
Response: > 7.00

###

# ASSAY TARGET: cathepsin D (Homo sapiens)
# Sequence (P07339 65-412, species assumed): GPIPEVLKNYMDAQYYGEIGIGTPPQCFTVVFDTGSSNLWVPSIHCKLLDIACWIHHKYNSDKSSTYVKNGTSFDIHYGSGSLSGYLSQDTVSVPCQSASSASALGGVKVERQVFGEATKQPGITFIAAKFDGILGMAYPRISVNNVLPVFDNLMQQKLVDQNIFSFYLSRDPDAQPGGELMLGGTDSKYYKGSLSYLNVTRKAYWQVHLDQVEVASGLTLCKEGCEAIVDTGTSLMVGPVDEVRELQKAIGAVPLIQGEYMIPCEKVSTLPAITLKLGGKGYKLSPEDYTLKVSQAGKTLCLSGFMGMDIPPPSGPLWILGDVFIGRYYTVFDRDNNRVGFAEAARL
# PROTOCOL SUMMARY: Inhibition of cathepsin D activity (substrate peptide ELDLAVEFWHDR, MALDI-TOF)
# Format: biochemical
# ASSAY CONTEXT: read-out: CathD Ki
MEASURED PARAMETER: pKi
Scale note: pKi = -log10(concentration in M).

Query: State the recorded pKi for this entry: Cc1csc([C@H]2CCCN2C(=O)c2cccc(C(=O)N[C@@H](Cc3ccccc3)[C@H](O)CNCc3cccc(C(F)(F)F)c3)c2)n1
Response: 5.97
